# conditionDetails: [M+H]+; instrument: DT; single field, calibrated with ESI Low Concentration Tuning Mix (Agilent)
resultType: collision cross section (N2) (Å²)

compound	measurementUnit	collision cross section (N2)
CC(=O)NC(Cc1c[nH]c2ccccc12)C(=O)O (stereo not drawn)	Å²	153.8
O=c1ccn([C@@H]2O[C@H](COP(=O)(O)OP(=O)(O)O)[C@@H](O)[C@H]2O)c(=O)[nH]1 [URIDINE 5'-DIPHOSPHATE]	Å²	176.9
O=C(O)C(CO)OP(=O)(O)O (stereo not drawn) [2-PHOSPHOGLYCERATE]	Å²	134.3
Nc1ncnc2c1ncn2[C@@H]1O[C@H](COP(=O)(O)O)[C@@H](OP(=O)(O)O)[C@H]1O [ADENOSINE 3',5'-DIPHOSPHATE]	Å²	183.3
CN[C@H](CC(=O)O)C(=O)O [N-METHYLASPARTATE]	Å²	130

(a) CSCC[C@H](N)C(=O)O
(b) NC(=O)c1ccc[n+]([C@@H]2O[C@H](COP(=O)([O-])OP(=O)(O)OC[C@H]3O[C@@H](n4cnc5c(N)ncnc54)[C@H](O)[C@@H]3O)[C@@H](O)[C@H]2O)c1 [BETA-NICOTINAMIDE ADENINE DINUCLEOTIDE]
Would you mind telling me which has the lower recorded collision cross section (N2) between a and b ? Mark your answer with the label of the selected entry. a
(a: 133.1 Å², b: 227.5 Å²)

----------
# conditionDetails: [M-H]-; instrument: DT; single field, calibrated with ESI Low Concentration Tuning Mix (Agilent)
resultType: collision cross section (N2) (Å²)

compound	resultType	resultValue
O=P(O)(O)O[C@H]1O[C@H](CO)[C@H](O)[C@H](O)[C@H]1O [GALACTOSE 1-PHOSPHATE]	collision cross section (N2)	148.2
O=CCc1c[nH]c2ccccc12	collision cross section (N2)	130.7
CC(C)=CCNc1ncnc2nc[nH]c12	collision cross section (N2)	150.5
Cc1ncc(CO)c(CN)c1O	collision cross section (N2)	133.9
O=C(O)[C@@H](O)[C@@H](O)[C@H](O)[C@@H](O)C(=O)O [SACCHARATE]	collision cross section (N2)	133.3

(1) CC(=O)N[C@@H]1[C@@H](O)[C@H](O)[C@@H](CO)O[C@H]1N
(2) NC(=O)c1ccc[n+]([C@@H]2O[C@H](COP(=O)([O-])OP(=O)(O)OC[C@H]3O[C@@H](n4cnc5c(N)ncnc54)[C@H](O)[C@@H]3O)[C@@H](O)[C@H]2O)c1 [BETA-NICOTINAMIDE ADENINE DINUCLEOTIDE]
Of the two listed items, 1 and 2 , which carries the larger collision cross section (N2) figure? Mark your answer with the label of the selected entry. 2

(a) C[Se]CCC(N)C(=O)O (centres undefined)
(b) Cc1cc2nc3c(=O)[nH]c(=O)nc-3n(C[C@H](O)[C@H](O)[C@H](O)COP(=O)(O)OP(=O)(O)OC[C@H]3O[C@@H](n4cnc5c(N)ncnc54)[C@H](O)[C@@H]3O)c2cc1C
Of the two listed items, a and b , which carries the larger collision cross section (N2) figure? Mark your answer with the label of the selected entry. b

(1) CCCCC/C=C\C/C=C\C/C=C\CCCCC(=O)[O-] [GAMMA-LINOLENATE]
(2) Oc1ccccc1O
Of the two listed items, 1 and 2 , which carries the larger collision cross section (N2) figure? Mark your answer with the label of the selected entry. 1
(1: 174.8 Å², 2: 114.5 Å²)

(1) O=C(O)C(=O)Cc1c[nH]c2ccccc12 [INDOLE-3-PYRUVATE]
(2) O=C(O)[C@H]1O[C@H](OP(=O)(O)OP(=O)(O)OC[C@H]2O[C@@H](n3ccc(=O)[nH]c3=O)[C@H](O)[C@@H]2O)[C@H](O)[C@@H](O)[C@@H]1O [URIDINE DIPHOSPHATE GLUCURONIC ACID]
Of the two listed items, 1 and 2 , which carries the larger collision cross section (N2) figure? Mark your answer with the label of the selected entry. 2
(2: 211.9 Å², 1: 137.6 Å²)

(1) CCC(C)C(=O)C(=O)O (centres undefined) [3-METHYL-2-OXOVALERATE]
(2) CCCCCCSC[C@H](NC(=O)CC[C@H](N)C(=O)O)C(=O)NCC(=O)O
Of the two listed items, 1 and 2 , which carries the larger collision cross section (N2) figure? Mark your answer with the label of the selected entry. 2
(2: 189 Å², 1: 127.1 Å²)
